Test system: esterase E011
Test: Initial screening of ThermoGen esterases toward esters 1-31 (pH indicator), specific activity
Type: biochemical
Conditions: 1 mM substrate, pH 7.2, 7 vol % acetonitrile, 25° C.
Listed here are compounds together with their documented Specific activity, esterase E011.
Value type: Specific activity, esterase E011

[[record]]
compound = "CC(C)(C)CC(=O)Oc1ccc2nc3ccc(=O)cc-3oc2c1 [Substrate 10, reference compound]"
target_system = "esterase E011"
value_reported = "2.7 mmol ester hydrolyzed/min/mg protein"

[[record]]
compound = "CCOC(=O)C(F)(F)F [Substrate 17]"
target_system = "esterase E011"
value_reported = "2.7 mmol ester hydrolyzed/min/mg protein"

[[record]]
compound = "C=COC(=O)CCCCC [Substrate 4]"
target_system = "esterase E011"
value_reported = "680 mmol ester hydrolyzed/min/mg protein"

[[record]]
compound = "CCCCCCCCCCCCCC(=O)Oc1ccc2nc3ccc(=O)cc-3oc2c1 [Substrate 6, Resorufin tetradecanoate, reference compound]"
target_system = "esterase E011"
value_reported = "280 mmol ester hydrolyzed/min/mg protein"

[[record]]
compound = "CCCCCCCC(=O)OCC [Substrate 15]"
target_system = "esterase E011"
value_reported = "11 mmol ester hydrolyzed/min/mg protein"

[[record]]
compound = "CCCC(=O)OCC1CO1 (stereo not shown) [Substrate 30]"
target_system = "esterase E011"
value_reported = "1.2 mmol ester hydrolyzed/min/mg protein"

[[record]]
compound = "NC(Cc1ccccc1)C(=O)Oc1ccc([N+](=O)[O-])cc1.O=C(O)C(F)(F)F (racemic) [Substrate 3, reference compound]"
target_system = "esterase E011"
value_reported = "220 mmol ester hydrolyzed/min/mg protein"

[[record]]
compound = "CC(C)Cc1ccc(C(C)C(=O)Oc2ccc([N+](=O)[O-])cc2)cc1 (racemic) [Substrate 2, reference compound]"
target_system = "esterase E011"
value_reported = "160 mmol ester hydrolyzed/min/mg protein"

[[record]]
compound = "C=COC(=O)CCCCCCC [Substrate 5]"
target_system = "esterase E011"
value_reported = "260 mmol ester hydrolyzed/min/mg protein"

[[record]]
compound = "CCOC(=O)CN.Cl [Substrate 31]"
target_system = "esterase E011"
value_reported = "0.1 mmol ester hydrolyzed/min/mg protein"

[[record]]
compound = "CCOC(=O)CBr [Substrate 18]"
target_system = "esterase E011"
value_reported = "5.5 mmol ester hydrolyzed/min/mg protein"


###

System: esterase E014
Experiment: Initial screening of ThermoGen esterases toward esters 1-31 (pH indicator), specific activity
Assay type: biochemical
Conditions: 1 mM substrate, pH 7.2, 7 vol % acetonitrile, 25° C.
Procedure: Initial screening measures the initial rate of hydrolysis of different esters. The rate of reaction was measured by monitoring the release of protons using a pH indicator, 4-nitrophenol. In this assay, the yellow color of the phenoxide disappears as the reaction proceeds. The amount of ester hydrolyzed can be measured quantitatively, as is known in the art. […]
Value type: Specific activity, esterase E014

[[record]]
molecule = "CC(C)(C)CC(=O)Oc1ccc2nc3ccc(=O)cc-3oc2c1 [Substrate 10, reference compound]"
value_reported = "1.0 mmol ester hydrolyzed/min/mg protein"


###

System: esterase E012
Test: Initial screening of ThermoGen esterases toward esters 1-31 (pH indicator), specific activity
Assay type: biochemical
Settings: 1 mM substrate, pH 7.2, 7 vol % acetonitrile, 25° C.
Value type: Specific activity, esterase E012

[[record]]
compound = "COC(=O)c1ccc(CO)cc1 [Substrate 23]"
value_reported = "<2 mmol ester hydrolyzed/min/mg protein"

[[record]]
compound = "C=COC(=O)CCCCCCC [Substrate 5]"
value_reported = "50 mmol ester hydrolyzed/min/mg protein"

[[record]]
compound = "CCC(C)OC(C)=O (stereo not shown) [Substrate 28]"
value_reported = "<2 mmol ester hydrolyzed/min/mg protein"

[[record]]
compound = "COC(=O)CBr [Substrate 19]"
value_reported = "2.4 mmol ester hydrolyzed/min/mg protein"

[[record]]
compound = "CCOC(=O)CBr [Substrate 18]"
value_reported = "5.9 mmol ester hydrolyzed/min/mg protein"

[[record]]
compound = "CCCC(=O)OCC(COC(=O)CCC)OC(=O)CCC [Substrate 29]"
value_reported = "37 mmol ester hydrolyzed/min/mg protein"

[[record]]
compound = "COC(=O)Cc1ccccc1 [Substrate 22]"
value_reported = "<2 mmol ester hydrolyzed/min/mg protein"

[[record]]
compound = "COC(=O)C(O)c1ccccc1 (stereo not shown) [Substrate 21]"
value_reported = "<2 mmol ester hydrolyzed/min/mg protein"

[[record]]
compound = "C=COC(=O)CCCCCCCCCCCCC [Substrate 7]"
value_reported = "7.6 mmol ester hydrolyzed/min/mg protein"

[[record]]
compound = "CCCC(=O)OCC [Substrate 13]"
value_reported = "<2 mmol ester hydrolyzed/min/mg protein"

[[record]]
compound = "CCCC(=O)OCC1CO1 (stereo not shown) [Substrate 30]"
value_reported = "3.4 mmol ester hydrolyzed/min/mg protein"

[[record]]
compound = "CC(=O)Oc1ccccc1 [Substrate 26]"
value_reported = "30 mmol ester hydrolyzed/min/mg protein"

[[record]]
compound = "CC(C)Cc1ccc(C(C)C(=O)Oc2ccc([N+](=O)[O-])cc2)cc1 (racemic) [Substrate 2, reference compound]"
value_reported = "11 mmol ester hydrolyzed/min/mg protein"

[[record]]
compound = "CCCCCCCC(=O)OCC [Substrate 15]"
value_reported = "19 mmol ester hydrolyzed/min/mg protein"

[[record]]
compound = "CCCOC(C)=O [Substrate 24]"
value_reported = "2.8 mmol ester hydrolyzed/min/mg protein"

[[record]]
compound = "COC(=O)CO [Substrate 20]"
value_reported = "<2 mmol ester hydrolyzed/min/mg protein"

[[record]]
compound = "NC(Cc1ccccc1)C(=O)Oc1ccc([N+](=O)[O-])cc1.O=C(O)C(F)(F)F (racemic) [Substrate 3, reference compound]"
value_reported = "37 mmol ester hydrolyzed/min/mg protein"

[[record]]
compound = "CCCCOC(C)=O [Substrate 25]"
value_reported = "<2 mmol ester hydrolyzed/min/mg protein"

